# SYSTEM_NAME: Matrix metalloproteinase-9 (Homo sapiens) (UniProt P14780)
# Sequence (P14780 whole entry): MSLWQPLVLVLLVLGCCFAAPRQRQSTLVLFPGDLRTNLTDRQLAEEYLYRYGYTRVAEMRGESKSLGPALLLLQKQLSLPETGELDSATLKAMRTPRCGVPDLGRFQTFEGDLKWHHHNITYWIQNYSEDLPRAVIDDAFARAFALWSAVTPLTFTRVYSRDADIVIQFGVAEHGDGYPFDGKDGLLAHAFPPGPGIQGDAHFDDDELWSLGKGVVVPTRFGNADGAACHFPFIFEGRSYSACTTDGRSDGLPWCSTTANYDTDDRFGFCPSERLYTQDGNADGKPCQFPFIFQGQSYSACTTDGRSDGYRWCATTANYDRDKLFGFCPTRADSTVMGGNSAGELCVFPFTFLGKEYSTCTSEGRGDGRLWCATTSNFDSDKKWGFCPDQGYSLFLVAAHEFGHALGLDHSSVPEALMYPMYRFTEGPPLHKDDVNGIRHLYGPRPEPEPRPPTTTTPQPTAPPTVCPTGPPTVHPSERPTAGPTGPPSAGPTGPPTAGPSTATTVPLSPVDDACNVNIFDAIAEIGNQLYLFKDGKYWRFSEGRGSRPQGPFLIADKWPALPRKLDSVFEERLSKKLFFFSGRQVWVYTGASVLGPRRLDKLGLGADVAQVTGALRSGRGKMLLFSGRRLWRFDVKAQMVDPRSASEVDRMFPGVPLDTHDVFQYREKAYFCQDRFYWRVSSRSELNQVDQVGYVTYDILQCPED
# ASSAY_DETAILS: Inhibition recombinant MMP9 at 100 uM
# Set-up: scale not given: the % may be the effect or the level left
Each entry gets Not satisfied if its Activity stays under 80%, and Satisfied if its Activity is 80% or above.

Below are worked cases with known answers.
q: Given O=C1NC(=O)C(CCc2ccncc2)(C2CCCCC2)C(=O)N1 , state whether its Activity is at least 80%.
a: Not satisfied

q: Is the recorded value of Activity equal to or greater than 80% for this compound? COC(=O)c1ccc(CSc2nc(O)c3c(-c4cccs4)csc3n2)o1
a: Satisfied

New cases:
q: Given O=C1NC(=O)C(CCc2ccncc2)(c2ccccc2)C(=O)N1 , state whether its Activity is at least 80%.
a: Not satisfied

q: Dear colleague, could you confirm whether CCN1C(=O)/C(=C2/Sc3ccccc3N2CCCS(=O)(=O)O)SC1=S has Activity at or above 80%?
a: Not satisfied

q: Does COc1cc(OC)cc(-c2nnc(Nc3nc4c(F)cccc4s3)o2)c1 have a reported Activity of at least 80%?
a: Not satisfied

----------
# SYSTEM_NAME: 72 kDa type IV collagenase (Homo sapiens) (UniProt P08253)
# Sequence (P08253 110-660 limits assumed): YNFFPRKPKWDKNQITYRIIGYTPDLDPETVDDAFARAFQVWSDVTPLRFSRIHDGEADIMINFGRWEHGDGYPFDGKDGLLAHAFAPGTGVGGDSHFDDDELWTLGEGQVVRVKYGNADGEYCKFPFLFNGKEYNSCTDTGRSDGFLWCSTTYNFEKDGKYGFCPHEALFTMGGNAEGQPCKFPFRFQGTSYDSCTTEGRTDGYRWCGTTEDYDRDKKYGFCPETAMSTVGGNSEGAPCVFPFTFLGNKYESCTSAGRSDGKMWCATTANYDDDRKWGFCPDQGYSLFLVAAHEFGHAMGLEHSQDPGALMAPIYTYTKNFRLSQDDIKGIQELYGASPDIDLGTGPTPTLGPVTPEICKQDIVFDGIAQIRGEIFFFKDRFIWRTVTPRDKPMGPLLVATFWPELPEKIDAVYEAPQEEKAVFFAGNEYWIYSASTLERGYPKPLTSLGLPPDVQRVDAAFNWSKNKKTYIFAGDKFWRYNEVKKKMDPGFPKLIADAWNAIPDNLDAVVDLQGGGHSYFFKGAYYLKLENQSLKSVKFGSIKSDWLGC
# ASSAY_DETAILS: Inhibition recombinant MMP2 at 100 uM
# Parameters: scale not given: the % may be the effect or the level left
# Activity per entry
A number alone suffices; assume %.

q: GET /values?readout=Activity&item= COc1cc(OC)cc(-c2nnc(Nc3nc4c(F)cccc4s3)o2)c1
a: 73

More entries:
q: What does the record list as Activity for O=C(CSCc1nc(O)n[nH]1)NCCOc1cccc(Oc2ccccc2)c1 ?
a: 19

q: I'd like to know its Activity. The molecule in question is O=C(O)CCC(NS(=O)(=O)c1ccc(-c2ccccc2)cc1)C(=O)O (stereo unspecified)
a: 7

q: Returns the measured Activity for the input molecule. Input: COC(=O)c1ccc(CSc2nc(O)c3c(-c4cccs4)csc3n2)o1
a: 100

q: What value of measured Activity is listed for C=CCN1C(=O)/C(=C2/Sc3ccccc3N2CCCS(=O)(=O)O)SC1=S ?
a: 100

q: // Activity lookup, key: Cc1nn(-c2ccccc2)c2sc(-c3nnc(S)o3)cc12
a: 100

----------
# SYSTEM_NAME: Collagenase 3 (Homo sapiens)
# ASSAY_DETAILS: Inhibition of human recombinant MMP13 expressed in Escherichia coli
Attribute: log10(IC50)
Units before log transform: µM; reported quantity: IC50; transform: log10.

q: Sample O=C(O)CCC(NS(=O)(=O)c1ccc(-c2ccccc2)cc1)C(=O)O (configuration not stated) — what was its log10(IC50)?
a: 0.32

q: I have this compound here, Oc1nc(SCc2ccc(Cl)cc2)nc2c1CCC2 , and I need its recorded log10(IC50).
a: 1.01

q: Requested field: log10(IC50). Item: CCOC(=O)/C(C#N)=C1/C=Nc2ccccc2N1
a: 0.53

q: Need log10(IC50) of CCOC(=O)C1CCCN(c2nc3ccccc3nc2C(C#N)C(=O)OCC)C1 (configuration not stated) , thanks.
a: 1.12

Further cases:
q: Which log10(IC50) is listed for Cc1nn(-c2ccccc2)c2sc(-c3nnc(S)o3)cc12 ?
a: -0.05

----------
# SYSTEM_NAME: Interstitial collagenase (Homo sapiens) (UniProt P03956)
# Sequence (P03956 whole entry): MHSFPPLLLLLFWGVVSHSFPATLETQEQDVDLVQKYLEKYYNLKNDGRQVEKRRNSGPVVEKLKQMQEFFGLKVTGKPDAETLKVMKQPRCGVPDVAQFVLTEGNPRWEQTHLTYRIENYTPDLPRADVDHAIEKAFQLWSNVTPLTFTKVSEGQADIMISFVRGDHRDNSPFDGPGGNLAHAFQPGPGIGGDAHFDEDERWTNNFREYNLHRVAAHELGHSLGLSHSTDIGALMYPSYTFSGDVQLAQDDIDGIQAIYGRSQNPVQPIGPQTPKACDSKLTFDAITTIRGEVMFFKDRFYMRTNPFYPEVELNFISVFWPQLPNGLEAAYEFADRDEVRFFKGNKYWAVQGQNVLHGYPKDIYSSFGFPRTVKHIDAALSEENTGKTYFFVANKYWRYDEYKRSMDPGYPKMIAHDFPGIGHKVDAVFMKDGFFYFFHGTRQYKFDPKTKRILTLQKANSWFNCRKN
# ASSAY_DETAILS: Inhibition recombinant MMP1 at 100 uM
# Design: scale not given: the % may be the effect or the level left
# if measured Activity < 90%: criterion met  # else: criterion not met

As a guide, the following entries are already answered.
q: Hello, I'm reviewing records and need to know if Activity of O=C1NC(=O)C(CCc2ccncc2)(C2CCCCC2)C(=O)N1 is below 90%. Could you check?
a: criterion met

q: Lab log: compare recorded Activity with 90%; is it strictly lower for COc1cc(OC)cc(-c2nnc(Nc3nc4c(F)cccc4s3)o2)c1 ?
a: criterion not met

***
q: A record lists C=CCN1C(=O)/C(=C2/Sc3ccccc3N2CCCS(=O)(=O)O)SC1=S . Is its Activity below 90%?
a: criterion not met

q: # TODO verify Activity < 90% strictly for this compound: CCOC(=O)/C(C#N)=C1/C=Nc2ccccc2N1
a: criterion not met

q: Does COc1ccc(CSc2nc(C)cc(O)n2)cc1 have Activity strictly under 90%?
a: criterion not met

q: Answer whether the compound O=C1NC(=O)C(CCc2ccncc2)(c2ccccc2)C(=O)N1 has Activity strictly less than 90%
a: criterion met

q: Hello, is Activity of the following compound strictly smaller than 90%? O=C(O)CCC(NS(=O)(=O)c1ccc(-c2ccccc2)cc1)C(=O)O (configuration not stated)
a: criterion met

----------
Activity reference
# SYSTEM_NAME: Collagenase 3 (Homo sapiens, UniProt P45452)
# ASSAY_DETAILS: Activity of human recombinant MMP13
# Set-up: concentration or dose not given beside the values
// note: answer is a bare numeric in %

q: I am curious: what Activity value has been reported for COC(=O)c1ccc(CSc2nc(O)c3c(-c4cccs4)csc3n2)o1 ?
a: 42

q: I am curious: what Activity value has been reported for O=C1NC(=O)C(CCc2ccncc2)(c2ccccc2)C(=O)N1 ?
a: 14

q: Report Activity for CCOC(=O)/C(C#N)=C1/C=Nc2ccccc2N1 please.
a: 62

q: I'd like to know its Activity. The molecule in question is O=C1NC(=O)C(CCc2ccncc2)(C2CCCCC2)C(=O)N1
a: 35

q: Value lookup for Activity; key = CCN1C(=O)/C(=C2/Sc3ccccc3N2CCCS(=O)(=O)O)SC1=S
a: 4

More entries:
q: Entry under review: COc1cc(OC)cc(-c2nnc(Nc3nc4c(F)cccc4s3)o2)c1 . Reported Activity?
a: 35

----------
# SYSTEM_NAME: Neutrophil collagenase (Homo sapiens)
# ASSAY_DETAILS: Inhibition recombinant MMP8 expressed in CHO-K1 cells at 100 uM
# Assay type: cell-based
# Set-up: scale not given: the % may be the effect or the level left
Reported Activity values follow for various compounds
The answer is to be given in %; state only the numeric part.

q: Which Activity is reported for this compound? CCOC(=O)/C(C#N)=C1/C=Nc2ccccc2N1
a: 80

q: Item under review: O=C1NC(=O)C(CCc2ccncc2)(c2ccccc2)C(=O)N1 . Reported Activity?
a: 8

q: Give the measured Activity of COC(=O)c1ccc(CSc2nc(O)c3c(-c4cccs4)csc3n2)o1 .
a: 94

q: Entry under review: COc1cc(OC)cc(-c2nnc(Nc3nc4c(F)cccc4s3)o2)c1 . Reported Activity?
a: 36

q: # query: Activity of entry O=C(O)CCC(NS(=O)(=O)c1ccc(-c2ccccc2)cc1)C(=O)O (configuration not stated)
a: 2

q: I have this compound here, Cc1nn(-c2ccccc2)c2sc(-c3nnc(S)o3)cc12 , and I need its recorded Activity.
a: 32

q: Give its Activity value. Item: CCN1C(=O)/C(=C2/Sc3ccccc3N2CCCS(=O)(=O)O)SC1=S
a: 100

q: Fill in the blank: the reported Activity of O=C(CSCc1nc(O)n[nH]1)NCCOc1cccc(Oc2ccccc2)c1 is ____.
a: 34

q: Sample O=C1NC(=O)C(CCc2ccncc2)(C2CCCCC2)C(=O)N1 — what was its Activity?
a: 50

q: # Activity lookup, item COc1ccc(CSc2nc(C)cc(O)n2)cc1
a: 80

---
q: Returns the measured Activity for the input compound. Input: C=CCN1C(=O)/C(=C2/Sc3ccccc3N2CCCS(=O)(=O)O)SC1=S
a: 100

q: Which Activity is listed for CCCCCCOc1ccc(C(CC(=O)O)C(N)=O)cc1 (configuration not stated) ?
a: 10

----------
# SYSTEM_NAME: Macrophage metalloelastase (Homo sapiens)
# ASSAY_DETAILS: Inhibition recombinant MMP12 at 100 uM
# Parameters: scale not given: the % may be the effect or the level left
Overview of recorded Activity for various compounds
Field: numeric (%). Do not append units.

Answered cases to consult:
q: Consider the compound shown here: O=C1NC(=O)C(CCc2ccncc2)(C2CCCCC2)C(=O)N1 What is its recorded Activity?
a: 21

q: Look up Activity: O=C1NC(=O)C(CCc2ccncc2)(c2ccccc2)C(=O)N1
a: 1

q: For COC(=O)c1ccc(CSc2nc(O)c3c(-c4cccs4)csc3n2)o1 , what is its reported Activity?
a: 92

q: Value lookup for Activity; key = COc1ccc(CSc2nc(C)cc(O)n2)cc1
a: 72

q: // returns reported Activity for input Cc1nn(-c2ccccc2)c2sc(-c3nnc(S)o3)cc12
a: 75

q: Suppose we examine the compound O=C(CSCc1nc(O)n[nH]1)NCCOc1cccc(Oc2ccccc2)c1 ; what Activity value has been reported?
a: 33

q: Activity for C=CCN1C(=O)/C(=C2/Sc3ccccc3N2CCCS(=O)(=O)O)SC1=S ?
a: 100

q: What does the data say about its Activity? Entry: CCOC(=O)/C(C#N)=C1/C=Nc2ccccc2N1
a: 100

q: What value of measured Activity is listed for CCCCCCOc1ccc(C(CC(=O)O)C(N)=O)cc1 (configuration not stated) ?
a: 0

q: Returns the measured Activity for the input compound. Input: COc1cc(OC)cc(-c2nnc(Nc3nc4c(F)cccc4s3)o2)c1
a: 64

New cases:
q: Activity lookup needed for O=C(O)CCC(NS(=O)(=O)c1ccc(-c2ccccc2)cc1)C(=O)O (configuration not stated) , thanks.
a: 2

q: Which Activity is reported for this compound? CCN1C(=O)/C(=C2/Sc3ccccc3N2CCCS(=O)(=O)O)SC1=S
a: 94
